- test target: T1, VEGF165 (UniProt P15692-4 27-191, biotinylated in the ELISA of Example 4 (site not stated))
- T1 construct: also called biotinylated VEGF165; soluble VEGF
- T1 sequence (P15692 other isoform, or with tags, fused parts or gaps limits assumed): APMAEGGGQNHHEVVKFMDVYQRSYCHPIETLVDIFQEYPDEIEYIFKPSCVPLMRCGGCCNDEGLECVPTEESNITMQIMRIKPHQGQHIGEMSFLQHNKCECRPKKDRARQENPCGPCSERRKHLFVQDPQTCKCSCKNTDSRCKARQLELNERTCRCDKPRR
- procedure summary: SPR (ProteOn), VEGF165 immobilized, multi-trace 50-0.195 nM, 25 C
quantity measured: koff (s⁻¹)
Numbers only, in s⁻¹.

binder	koff, s⁻¹
2-in-1 DARPin 17 (SEQ ID NO: 10) (designed binder, N3C mono-domain; purified by its His-tag) DLGKKLLQAARAGQLDEVRELLKAGADVNAKDSTGWTPLHLAAPWGHPEIVEVLLKAGADVNAKDFQGWTPLHLAAAAGHLEIVEVLLKAGADVNAKDWLGWTPLHLAASHGHLEIVEVLLKAGADVNAQDKSGKTPADLAARAGHQDIAEVLQKAA	0.00085
2-in-1 DARPin 18 (SEQ ID NO: 11) (designed binder, N4C mono-domain; purified by its His-tag) DLDKKLLEAARAGQDDEVRILLKAGADVNAKDSTGWTPLHLAAPWGHPEIVEVLLKAGADVNAKDFQGWTPLHLAAAAGHLEIVEVLLKAGADVNAKDVYGWTPLHIAAASGHLEIVEVLLKAGADVNAKDWLGWTPLHLAASHGHLEIVEVLLKAGADVNAQDKSGKTPADLAARAGHQDIAEVLQKAA	0.00012
2-in-1 DARPin 13 (SEQ ID NO: 8) (designed binder, N3C mono-domain; purified by its His-tag) DLDKKLLEAARAGQDDEVRILLKAGADVNAKDSTGWTPLHLAAPWGHPEIVEVLLKAGADVNAKDFYGWTPLHLAAAAGHLEIVEVLLKAGADVNAKDWLGWTPLHLAASHGHLEIVEVLLKAGADVNAQDKSGKTPADLAARAGHQDIAEVLQKAA	0.00268

Determine from records and report koff for 2-in-1 DARPin 19 (SEQ ID NO: 12) (designed binder, N4C mono-domain; purified by its His-tag) DLDKKLLEAARAGQDDEVRILLKAGADVNAKDSTGWTPLHLAAPWGHPEIVEVLLKAGADVNAKDFKGWTPLHLAAAAGHLEIVEVLLKAGADVNAKDVYGWTPLHLAAAAGHLEIVEVLLKAGADVNAKDWLGWTPLHLAASHGHLEIVEVLLKAGADVNAQDKSGKTPADLAARAGHQDIAEVLQKAA
0.0949
